measurementDescription: Phenytoin solubility in absence and presence of fosphenytoin and (SBE)7m-β-CD
Format: physicochemical
conditionContext: 0.02 m tris buffer, pH 7.4, aqueous buffer, pH 7.4, 60 mM (SBE)7m-β-CD, 25° C.; read-out: Phenytoin Conc. (Solubility Criteria)
reportedMetric: solubility at 120 h (µg/mL)
Quick note: give the figure in µg/mL, leave out the unit.

[ask] Sample `O=C1NC(=O)C(c2ccccc2)(c2ccccc2)N1` — what was its solubility at 120 h?
[reply] 451

###

conditionContext: 0.02 m tris buffer, pH 7.4
Please go through the items and note down their pKd.
Just the number, please; pKd means minus log10 of the concentration in mol/L.

[ask] Sample O=C1NC(c2ccccc2)(c2ccccc2)C(=O)N1COP(=O)(O)O [fosphenytoin] — what was its pKd?
[reply] 1.59

[ask] Sample O=C1NC(=O)C(c2ccccc2)(c2ccccc2)N1 [phenytoin] — what was its pKd?
[reply] 3.03
